# Assay Target: cloned human or rodent CNS receptors, channels, and transporters (PDSP panel) (Homo sapiens, UniProt P21918)
# Construct: expressed in transfected cells
# Sequence (P21918 whole entry): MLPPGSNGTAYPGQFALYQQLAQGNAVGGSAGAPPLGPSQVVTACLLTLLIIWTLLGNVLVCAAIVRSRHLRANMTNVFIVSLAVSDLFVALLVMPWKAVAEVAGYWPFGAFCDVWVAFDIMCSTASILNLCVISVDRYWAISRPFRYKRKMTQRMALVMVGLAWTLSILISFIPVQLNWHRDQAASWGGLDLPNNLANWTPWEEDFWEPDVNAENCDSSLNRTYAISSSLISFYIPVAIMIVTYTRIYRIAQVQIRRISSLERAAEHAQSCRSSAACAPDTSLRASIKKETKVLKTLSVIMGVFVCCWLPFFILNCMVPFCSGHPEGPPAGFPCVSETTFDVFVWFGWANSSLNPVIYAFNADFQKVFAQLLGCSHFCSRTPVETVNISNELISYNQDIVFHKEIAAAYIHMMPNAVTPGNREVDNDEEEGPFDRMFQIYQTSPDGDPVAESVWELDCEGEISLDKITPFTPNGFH
# Test Summary: PDSP GPCR panel primary binding assays at 10 μM
# Measurement Conditions: Receptor D5; primary assay, 10 μM; mean of Inhibition 1-4
Recorded Metric: Mean % (%)
Write it as a number; the unit % goes unstated.

The following compounds have reported results that may help.
{"Compound": "Cl.NC(=O)c1cnc(N[C@@H]2CCCC[C@@H]2N)nc1Nc1cccc(-n2nccn2)c1 [UNC10302682A, P505-15 (PRT06207 HCl)]", "Mean %, %": 15.19}
{"Compound": "CCCCNc1ncc2c(-c3ccc(CN4CCN(C)CC4)cc3)cn([C@H]3CC[C@H](O)CC3)c2n1 [UNC2025C, UNC2025]", "Mean %, %": 7.13}
{"Compound": "O=c1oc2ccccc2cc1-c1cn2cc(Cc3ccc(F)cc3)sc2n1 [UNC10302680A, iMDK]", "Mean %, %": 11.43}

Given item c1cn2cc(-c3ccc4cn[nH]c4c3)nc(Nc3ccc(N4CCOCC4)cc3)c2n1 [UNC10302678A, Entospletinib (GS-9973)] , the value recorded as its Mean % is 7.86

----------
# Assay Target: cloned human or rodent CNS receptors, channels, and transporters (PDSP panel) (Homo sapiens)
# Construct: expressed in transfected cells
# Test Summary: PDSP GPCR panel primary binding assays at 10 μM
# Measurement Conditions: M5; primary assay, mean inhibition
Recorded Metric: Mean % (%)
Value expressed in %; do not type the unit.

Some solved entries appear below for comparison.
{"Compound": "CNc1nc(C)nc(N[C@H]2CCC[C@@H](C(=O)NCc3ccc(C#N)cc3C(F)(F)F)C2)n1 [UNC10302679A, GSK2256294A]", "Units Of Measure": "%", "Reading": -6.81}
{"Compound": "CCC(=O)N1CCC(NC(=O)Nc2ccc(OC(F)(F)F)cc2)CC1 [UNC10302681A, TPPU]", "Units Of Measure": "%", "Reading": -2.23}
{"Compound": "O=C(NC1CC1)C(=O)C(Cc1ccccc1)NC(=O)[C@H]1CCC(=O)N1Cc1ccccc1 (stereo partly shown) [UNC10302676A, ABT-957 (Alicapistat)]", "Units Of Measure": "%", "Reading": -3.53}

Okay, next one:
The compound listed as CC(=O)N1CCC(NC(=O)NC23CC4CC(CC(C4)C2)C3)CC1 [UNC10302683A, AR9281] has a reported Mean % of -4.97

----------
# Assay Target: cloned human or rodent CNS receptors, channels, and transporters (PDSP panel) (Homo sapiens)
# Construct: expressed in transfected cells
# Test Summary: PDSP GPCR panel primary binding assays at 10 μM
# Measurement Conditions: Alpha2B; primary assay, mean inhibition
Recorded Metric: Mean % (%)
Your answer is read as %, so omit the unit and give the number.

Past entries and their recorded results:
{"Compound": "CC(=O)N1CCC(NC(=O)NC23CC4CC(CC(C4)C2)C3)CC1 [UNC10302683A, AR9281]", "Units Of Measure": "%", "Reading": 16.32}
{"Compound": "CCC(=O)N1CCC(NC(=O)Nc2ccc(OC(F)(F)F)cc2)CC1 [UNC10302681A, TPPU]", "Units Of Measure": "%", "Reading": 6.32}
{"Compound": "CNc1nc(C)nc(N[C@H]2CCC[C@@H](C(=O)NCc3ccc(C#N)cc3C(F)(F)F)C2)n1 [UNC10302679A, GSK2256294A]", "Units Of Measure": "%", "Reading": 9.85}

Given item O=C(NC1CC1)C(=O)C(Cc1ccccc1)NC(=O)[C@H]1CCC(=O)N1Cc1ccccc1 (stereo partly shown) [UNC10302676A, ABT-957 (Alicapistat)] , the value recorded as its Mean % is 8.48

----------
# Assay Target: cloned human or rodent CNS receptors, channels, and transporters (PDSP panel) (Homo sapiens, UniProt P14416)
# Construct: expressed in transfected cells
# Sequence (P14416 whole entry): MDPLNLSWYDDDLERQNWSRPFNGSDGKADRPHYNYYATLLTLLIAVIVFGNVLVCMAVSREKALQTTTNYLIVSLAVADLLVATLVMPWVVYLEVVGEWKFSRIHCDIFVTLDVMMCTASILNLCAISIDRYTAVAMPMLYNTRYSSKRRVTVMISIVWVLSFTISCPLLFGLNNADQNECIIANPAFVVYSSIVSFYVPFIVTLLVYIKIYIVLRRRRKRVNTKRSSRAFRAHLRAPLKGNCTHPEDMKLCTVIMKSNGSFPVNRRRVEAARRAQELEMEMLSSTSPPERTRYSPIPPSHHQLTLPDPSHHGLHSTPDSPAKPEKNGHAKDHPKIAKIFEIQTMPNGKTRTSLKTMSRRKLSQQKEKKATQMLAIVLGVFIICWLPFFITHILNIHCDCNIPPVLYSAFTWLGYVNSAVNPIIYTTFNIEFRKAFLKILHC
# Test Summary: PDSP GPCR panel primary binding assays at 10 μM
# Measurement Conditions: D2; primary assay, mean inhibition
Recorded Metric: Mean % (%)
Lab book: enter the figure in %, no units written.

Consider the worked cases shown below.
{"Compound": "O=C(NC1CC1)C(=O)C(Cc1ccccc1)NC(=O)[C@H]1CCC(=O)N1Cc1ccccc1 (stereo partly shown) [UNC10302676A, ABT-957 (Alicapistat)]", "Reading": -21.21}
{"Compound": "CCC(=O)N1CCC(NC(=O)Nc2ccc(OC(F)(F)F)cc2)CC1 [UNC10302681A, TPPU]", "Reading": -2.08}
{"Compound": "CC(=O)N1CCC(NC(=O)NC23CC4CC(CC(C4)C2)C3)CC1 [UNC10302683A, AR9281]", "Reading": -5.85}

Consider the record given below.
# Mean % of CNc1nc(C)nc(N[C@H]2CCC[C@@H](C(=O)NCc3ccc(C#N)cc3C(F)(F)F)C2)n1 [UNC10302679A, GSK2256294A] = -7.22

----------
# Test system: cloned human or rodent CNS receptors, channels, and transporters (PDSP panel)
# Test Summary: PDSP GPCR panel primary binding assays at 10 μM
# Measurement Conditions: Receptor Alpha1A; primary assay, 10 μM; mean of Inhibition 1-4
Reported values of Mean % for individual entries
Answer by giving the amount and then stating its unit.

Use these answered entries as a reference point.
{"Compound": "CCCCNc1ncc2c(-c3ccc(CN4CCN(C)CC4)cc3)cn([C@H]3CC[C@H](O)CC3)c2n1 [UNC2025C, UNC2025]", "Recorded Metric": "Mean %", "Reading": "45.27%"}
{"Compound": "O=c1oc2ccccc2cc1-c1cn2cc(Cc3ccc(F)cc3)sc2n1 [UNC10302680A, iMDK]", "Recorded Metric": "Mean %", "Reading": "-8.46%"}
{"Compound": "Cl.NC(=O)c1cnc(N[C@@H]2CCCC[C@@H]2N)nc1Nc1cccc(-n2nccn2)c1 [UNC10302682A, P505-15 (PRT06207 HCl)]", "Recorded Metric": "Mean %", "Reading": "17.96%"}

We now examine a further compound.
Lab note: c1cn2cc(-c3ccc4cn[nH]c4c3)nc(Nc3ccc(N4CCOCC4)cc3)c2n1 [UNC10302678A, Entospletinib (GS-9973)] gave Mean % of -22.63%

----------
Reported Inhibition 3 values for the following compounds.
# Assay Target: cloned human or rodent CNS receptors, channels, and transporters (PDSP panel) (Homo sapiens, UniProt P35372)
# Construct: expressed in transfected cells
# Sequence (P35372 whole entry): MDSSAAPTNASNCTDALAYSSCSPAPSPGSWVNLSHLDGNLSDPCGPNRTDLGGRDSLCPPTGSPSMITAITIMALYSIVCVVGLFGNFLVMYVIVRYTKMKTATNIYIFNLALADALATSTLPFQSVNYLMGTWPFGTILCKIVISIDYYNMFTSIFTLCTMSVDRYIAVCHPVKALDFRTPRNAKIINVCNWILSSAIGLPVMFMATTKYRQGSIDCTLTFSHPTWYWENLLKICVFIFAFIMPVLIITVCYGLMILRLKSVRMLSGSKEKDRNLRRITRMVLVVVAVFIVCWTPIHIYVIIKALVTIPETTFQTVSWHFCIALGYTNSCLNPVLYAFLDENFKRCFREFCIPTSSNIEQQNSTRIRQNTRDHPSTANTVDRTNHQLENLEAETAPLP
# Test Summary: PDSP GPCR panel primary binding assays at 10 μM
# Measurement Conditions: Receptor MOR; primary assay, 10 μM
Kindly format the answer as number then unit.

{"Compound": "Cl.NC(=O)c1cnc(N[C@@H]2CCCC[C@@H]2N)nc1Nc1cccc(-n2nccn2)c1 [UNC10302682A, P505-15 (PRT06207 HCl)]", "Inhibition 3": "17.6%"}
{"Compound": "c1cn2cc(-c3ccc4cn[nH]c4c3)nc(Nc3ccc(N4CCOCC4)cc3)c2n1 [UNC10302678A, Entospletinib (GS-9973)]", "Inhibition 3": "5.91%"}
{"Compound": "O=c1oc2ccccc2cc1-c1cn2cc(Cc3ccc(F)cc3)sc2n1 [UNC10302680A, iMDK]", "Inhibition 3": "2.65%"}

According to the records, this compound CCCCNc1ncc2c(-c3ccc(CN4CCN(C)CC4)cc3)cn([C@H]3CC[C@H](O)CC3)c2n1 [UNC2025C, UNC2025] displays Inhibition 3 of 2.36%

----------
# Assay Target: cloned human or rodent CNS receptors, channels, and transporters (PDSP panel) (Homo sapiens, UniProt P14416)
# Construct: expressed in transfected cells
# Test Summary: PDSP GPCR panel primary binding assays at 10 μM
# Measurement Conditions: D2; primary assay, replicate 2
Recorded Inhibition 2 values for a group of compounds are listed next.
Reply with just the number (in %).

{"Compound": "CNc1nc(C)nc(N[C@H]2CCC[C@@H](C(=O)NCc3ccc(C#N)cc3C(F)(F)F)C2)n1 [UNC10302679A, GSK2256294A]", "Recorded Metric": "Inhibition 2", "Reading": -5.21}
{"Compound": "CCC(=O)N1CCC(NC(=O)Nc2ccc(OC(F)(F)F)cc2)CC1 [UNC10302681A, TPPU]", "Recorded Metric": "Inhibition 2", "Reading": -12.22}
{"Compound": "CC(=O)N1CCC(NC(=O)NC23CC4CC(CC(C4)C2)C3)CC1 [UNC10302683A, AR9281]", "Recorded Metric": "Inhibition 2", "Reading": -2.98}

Attention now shifts to the item below.
The value of Inhibition 2 measured for the compound O=C(NC1CC1)C(=O)C(Cc1ccccc1)NC(=O)[C@H]1CCC(=O)N1Cc1ccccc1 (stereo partly shown) [UNC10302676A, ABT-957 (Alicapistat)] turned out to be -31.51
